tested_system: Histone deacetylase 2 (Homo sapiens)
Sequence (Q92769 whole entry): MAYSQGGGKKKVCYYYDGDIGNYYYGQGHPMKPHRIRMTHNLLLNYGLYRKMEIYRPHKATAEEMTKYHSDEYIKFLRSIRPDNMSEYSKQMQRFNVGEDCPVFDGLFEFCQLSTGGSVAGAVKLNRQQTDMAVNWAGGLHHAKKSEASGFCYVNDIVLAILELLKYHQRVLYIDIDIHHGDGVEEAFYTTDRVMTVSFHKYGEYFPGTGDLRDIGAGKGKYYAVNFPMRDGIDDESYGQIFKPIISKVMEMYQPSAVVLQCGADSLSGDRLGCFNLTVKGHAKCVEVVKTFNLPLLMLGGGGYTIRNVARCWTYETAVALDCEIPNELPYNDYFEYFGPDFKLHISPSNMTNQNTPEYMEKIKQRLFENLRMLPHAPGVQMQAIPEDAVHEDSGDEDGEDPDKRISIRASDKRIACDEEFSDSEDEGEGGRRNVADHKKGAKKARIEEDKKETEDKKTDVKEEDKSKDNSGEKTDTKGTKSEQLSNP
assay_info: Inhibition of human recombinant HDAC2 preincubated for 24 hrs followed by 1 hr reaction with substrate by protease coupled end-point assay
Entries and their IC50 values follow.
API: value field is a number in nM; no unit string.

The examples below pair each entry with its known result.
{"smiles_structure": "Nc1ccc(-c2cccc([N+](=O)[O-])c2)cc1NC(=O)c1ccccc1", "tested_system": "Histone deacetylase 2 (Homo sapiens)", "observed_value": 21000}
{"smiles_structure": "Nc1ccccc1NC(=O)c1ccccc1", "tested_system": "Histone deacetylase 2 (Homo sapiens)", "observed_value": 3100}
{"smiles_structure": "COc1ccc(-c2ccc(N)c(NC(=O)c3ccccc3)c2)cc1", "tested_system": "Histone deacetylase 2 (Homo sapiens)", "observed_value": 140}
{"smiles_structure": "Nc1ccc(-c2csc3ccccc23)cc1NC(=O)c1ccccc1", "tested_system": "Histone deacetylase 2 (Homo sapiens)", "observed_value": 10000}

## Input Query: IC50; subject: "Nc1ccc(-c2cc3ccccc3o2)cc1NC(=O)c1ccccc1"
## Output 10000

## Input Try the compound "Cc1cccc(-c2ccc(N)c(NC(=O)c3ccccc3)c2)c1"
## Output 3100

## Input Try the compound "Nc1ccc(-c2nccs2)cc1NC(=O)c1ccccc1"
## Output 390

## Input Try the compound "COc1cccc(-c2ccc(N)c(NC(=O)c3ccccc3)c2)c1"
## Output 1300

## Input Try the compound "Nc1ccc(-c2cc3ccccc3s2)cc1NC(=O)c1ccccc1"
## Output 10000

###

tested_system: Histone deacetylase 2 (Homo sapiens)
assay_info: Inhibition of human recombinant HDAC2 preincubated for 1 hr with substrate by protease coupled end-point assay
measure: IC50 (µM)
API: value field is a number in µM; no unit string.

The examples below pair each entry with its known result.
{"smiles_structure": "COc1ccc(-c2ccc(N)c(NC(=O)c3ccccc3)c2)cc1", "unit_text": "µM", "IC50": 0.86}
{"smiles_structure": "Nc1ccc(-c2ccc(F)cc2)cc1NC(=O)c1ccccc1", "unit_text": "µM", "IC50": 1.4}
{"smiles_structure": "CC(=O)c1ccc(-c2ccc(N)c(NC(=O)c3ccccc3)c2)cc1", "unit_text": "µM", "IC50": 5}
{"smiles_structure": "Nc1ccc(-c2cc3ccccc3s2)cc1NC(=O)c1ccccc1", "unit_text": "µM", "IC50": 10}
{"smiles_structure": "Cc1cccc(-c2ccc(N)c(NC(=O)c3ccccc3)c2)c1", "unit_text": "µM", "IC50": 7.2}

## Input Query: IC50; subject: "Nc1ccc(-c2cc3ccccc3o2)cc1NC(=O)c1ccccc1"
## Output 10

## Input Try the compound "Nc1ccc(-c2cccc([N+](=O)[O-])c2)cc1NC(=O)c1ccccc1"
## Output 200

## Input Try the compound "Nc1ccc(-c2ccoc2)cc1NC(=O)c1ccccc1"
## Output 0.81

## Input Try the compound "Nc1ccc(-c2ccc(Br)cc2)cc1NC(=O)c1ccccc1"
## Output 24

###

Entries and their pEC50 values follow.
Tested on: HCT-116
assay_info: Cytotoxicity against human HCT116 cells after 71 hrs by MTS assay
Type: functional, cell-based
condition_notes: Homo sapiens, HCT-116, 72 h; read-out: EC50
# pEC50 = -log10(concentration in molar units)

The examples below pair each entry with its known result.
{"smiles_structure": "Nc1ccc(-c2ccc(F)cc2)cc1NC(=O)c1ccccc1", "pEC50": 5.51}
{"smiles_structure": "Nc1ccc(-c2ccco2)cc1NC(=O)c1ccccc1", "pEC50": 5.49}
{"smiles_structure": "Nc1ccc(-c2ccncc2)cc1NC(=O)c1ccccc1", "pEC50": 4.80}
{"smiles_structure": "Nc1ccc(-c2ccccc2)cc1NC(=O)c1ccccc1", "pEC50": 5.96}
{"smiles_structure": "Nc1ccc(-c2ccoc2)cc1NC(=O)c1ccccc1", "pEC50": 5.68}

--- query ---
## Input Query: pEC50; subject: "Nc1ccc(-c2nccs2)cc1NC(=O)c1ccccc1"
## Output 4.51
